Where these numbers come from: ChEMBL document CHEMBL1201862

- System: NCI-H226
- test.summary: NCI tumour cell line growth inhibition, 48 h
Active and inactive are the calls of the source. Cut-off read from the data, not from the text of the source: active = GI50 up to about 1.1 µM and inactive = higher.
Outcomes: y (active), n (inactive)

| compound | label |
| --- | --- |
| CN1CCOC1c1ccccc1O (stereo not given) | n |
| CN(C)N1C(=O)S/C(=C\c2ccc([N+](=O)[O-])cc2)C1=O | n |
| COC(=O)[C@]1(C)CCC[C@@]2(C)C1CCC1=CC3(C(C)C)CCC12OO3 (stereo not given in full) | n |
| CCCNC(=O)OCc1c(COC(=O)NCCC)c(-c2ccc(Cl)c(Cl)c2)n2c1CCC2 | n |
| CSS(C)(=O)=O | n |
| c1ccc(SC(Sc2ccccc2)c2ccc3c(c2)OCO3)cc1 | n |
| CC1(C)CCC2=C(O1)c1ccccc1C(=O)C2=O | n |
| C=C(C)C1CCC(C(=O)O)CC1 (stereo not given) | n |
| CO[C@H]1C[C@H](O[C@H]2CC[C@@]3(C)[C@H](CC[C@@H]4[C@@H]3CC[C@]3(C)[C@@H](C5=CC(=O)OC5)CC[C@]43O)C2)O[C@H](C)[C@H]1O | y |
| CCOC(=O)c1c(-c2cccc(Cl)c2)c(C(=O)OC)c(C)c2sc(C=O)nc12 | n |
| CCCN(CCCCC(NC(C)=O)C(=O)NCc1ccccc1)C(=O)N(C)N=O (stereo not given) | n |
| C=C1c2nc3ccccc3n2C=C(c2ccc(OC)cc2)N1c1ccccc1 | n |
| O=S(=O)(O)c1ccc2c(/N=N/c3cccc4ccccc34)c(O)c(S(=O)(=O)O)cc2c1 | n |
| COC(=O)CCC1(CCC(=O)OC)CCCCCCC(CCC(=O)OC)(CCC(=O)OC)C(=O)C1=O | n |
| COc1cc(C2C3=C(N=C4SC(C(C)=O)=C(C)N42)c2ccccc2CC3)cc(OC)c1OC (stereo not given) | n |
| NC(=S)NNC(=O)CCC(=O)Nc1ccc(Cl)cc1Cl | n |
| Cc1cc(N(CCC#N)CCC#N)ccc1/C=C(\NC(=O)/C=C/c1ccccc1)C(=O)Nc1ccccc1Cl | n |
| O=c1cc(N2CCCC2)[nH]c(=O)n1-c1ccccc1 | n |
| COc1cc(C(=O)C2CC3(CCC2(O)c2cc(OC)c(OC)c(OC)c2)CC(=O)Nc2ccccc2C3=O)cc(OC)c1OC (stereo not given) | n |
| CN(C)c1nc(-c2ccccc2)c(C(=O)c2c[nH]c3ccccc23)s1 | n |
| N#Cc1c(-c2ccc([N+](=O)[O-])cc2)c(C#N)c(=O)n(NS(=O)(=O)c2ccccc2)c1O | n |
| CON(C)C(=O)C(Cc1ccccc1)NC(=O)OC(C)(C)C (stereo not given) | n |
| CCCCC(=O)/C=c1/cc(C)[nH]c2cccc3cnn1c32 | n |
| COC(=O)C1=C(C)N2CCOC2CC1c1ccccc1 (stereo not given) | n |
| O=[N+]([O-])c1ccc(C(Cl)C(Cl)c2ccc(C(Cl)C(Cl)c3ccc([N+](=O)[O-])cc3[N+](=O)[O-])cc2)c([N+](=O)[O-])c1 (stereo not given) | n |
| OCC1OC(n2cnc3c2NC=NC[C@H]3O)C(O)C1O (stereo not given in full) | n |
| COc1ccc2c3c1O[C@H]1[C@@H](O)CC[C@@]4(O)[C@@H](C2)N(C)CC[C@]314 | n |
| Nc1c2c(nc3cc(F)c(F)cc13)CCC2 | n |
| CSc1ccc2c(cc1=O)[C@@H](NC(=O)c1cccc([N+](=O)[O-])c1)CCc1cc(O)c(O)c(O)c1-2 | n |
| CCCCOC(C)(C)/C=C/C(O)[C@](C)(O)[C@H]1[C@H](O)C[C@@]2(C)[C@@H]3CCc4c(cc(OC5OC(CO)C(O)C(O)C5O)c(O)c4C)C3(C)C(=O)C[C@]12C (stereo not given in full) | n |
| Oc1cn(-c2ccc(Cl)cc2)nc1-c1nnc(-c2ccccc2)o1 | y |
| Cc1ccccc1NC(=O)c1nc(S)nc(N)c1-c1ccccc1C | n |
| CN(c1ccc(Cl)cc1)S(=O)(=O)c1ccc([N+](=O)[O-])cc1 | n |
| CC(=O)Nc1ccc(C(=O)NN2C(=O)C(Cl)C2c2cccc([N+](=O)[O-])c2)cc1 (stereo not given) | n |
| CSC1(SC2=NCCN2)SC2(NCCN2)S1 | n |
| OC1(C(O)(c2ccc(-c3ccccc3)cc2)c2ccc(-c3ccccc3)cc2)CCCCC1 | n |
| CCN1c2ccccc2-c2c3c1cc(C)cc3c1ccccc1[n+]2CC | n |
| CC(C)[C@H](CCl)NC(=O)c1cccc(C(=O)N[C@H](CCl)C(C)C)n1 (stereo in doubt) | n |
| CN(C)c1cccc(/C=C(\C#N)c2ccccc2)c1 | n |
| C/C(=C\[Si](C)(C)c1ccco1)C(C)(O)[C@H](C)O (stereo not given in full) | n |

====

- Tested on: SF-295
- test.summary: NCI tumour cell line growth inhibition, 48 h
Active and inactive are the calls of the source. No stated cut-off is given here; in the data, active = GI50 up to about 1.1 µM and inactive = higher.
Items are presented alongside their recorded GI50.

| compound | GI50 |
| --- | --- |
| COc1ccc2nc3c([N+](=O)[O-])ccc(NCCN(C)C)c3c(N)c2c1 | 1.75 µM (inactive) |
| O=C1C(Cl)C(c2ccccc2Cl)N1n1cnc2ccccc2c1=O (stereo unspecified) | 29.4 µM (inactive) |
| CN(C)N1C(=O)S/C(=C\c2ccc([N+](=O)[O-])cc2)C1=O | > 100 µM (inactive) |
| C/C=C(/C)C(=O)OC1CC(C)[C@H]2CC(=O)C(C)=C2CC1C(C)(C)OC(C)=O (stereo partly specified) | 24.7 µM (inactive) |
| OC1(C(O)(c2ccc(-c3ccccc3)cc2)c2ccc(-c3ccccc3)cc2)CCCCC1 | > 100 µM (inactive) |
| Cc1ccc(OCC2CO2)c(Br)c1 (stereo unspecified) | 21 µM (inactive) |
| O=C1Cc2c([nH]c3cc(Br)ccc23)-c2ccccc2N1 | 22.5 µM (inactive) |
| CCc1ccc(COC(=O)C2=C(C)NC(C)=C(C(=O)OCc3ccc(CC)cn3)C2C2=COCCO2)nc1 | 24.9 µM (inactive) |
| CC(NO)/C(=N/O)c1ccco1 (stereo unspecified) | > 10 µM (inactive) |
| COC(=O)/C=C/c1ccc2c(c1)CC1(Cc3ccccc3C1)C2 | > 100 µM (inactive) |
| C[n+]1c2ccccc2c(NCC(=O)O)c2ccccc21 | > 100 µM (inactive) |

====

- System: HL-60
- test.summary: NCI tumour cell line growth inhibition, 48 h
Where a name gives a salt, the structure may show the parent alone. Active and inactive are the calls of the source. Cut-off read from the data, not from the text of the source: active = GI50 up to about 1.1 µM and inactive = higher.
This section presents compounds with their documented GI50 values.
parameter: GI50

| compound | observed.result |
| --- | --- |
| CC1CC(C)(O)C2C3(C)CCCC2(COC3=O)C12CCC1(CCOC1=O)O2 (configuration not stated) | > 250 µM (inactive) |
| CCOC(=O)c1c(-c2cccc(Cl)c2)c(C(=O)OC)c(C)c2sc(C=O)nc12 | 17.7 µM (inactive) |
| CP(=O)(O)C(N)c1ccccc1 (configuration not stated) | > 100 µM (inactive) |
| CCc1nc2c(c(N(C)C)c1C(=O)OC)CCc1ccccc1-2 | 2.86 µM (inactive) |
| CNC(=S)N/N=C(\C)c1nc2cccnc2[nH]1 | 17.6 µM (inactive) |
| CC(C)=CCc1c(O)c(CC2=C(O)C(CC=C(C)C)(C(=O)C(C)C)C(O)=C(C)C2=O)c(O)c(C(=O)C(C)C)c1O (configuration not stated) | 39 µM (inactive) |
| Cc1ccnn1CCc1ccc(Cl)cc1Cl | 7.69 µM (inactive) |
| CC(=O)N1N=C(c2cc(C)ccc2O)CC1c1cccc(Cl)c1 (configuration not stated) | 8.53 µM (inactive) |
| CCCCOC(=O)CC(CC(=O)OCCCC)(OC(C)=O)C(=O)OCCCC [ACETYLTRIBUTYL CITRATE] | 27.8 µM (inactive) |
| CC(C)(CO)N1C(=O)c2ccccc2C1(O)c1ccc(Cl)cc1 (configuration not stated) | > 100 µM (inactive) |
| Cc1ccc(C(=O)C2C=C(c3ccc(C)cc3)SC3C=CCC32)cc1 (configuration not stated) | 8.95 µM (inactive) |
| COC(=O)[C@]1(C)CCC[C@@]2(C)C1CCC1=CC3(C(C)C)CCC12OO3 (some centres not stated) | 15.9 µM (inactive) |
| CC(CN1CCN(CC(C)Nc2ccnc3cc(Cl)ccc23)CC1)Nc1ccnc2cc(Cl)ccc12 (configuration not stated) | 8.93 µM (inactive) |
| CN(C)Cc1ccc(C(C)(C)C)cc1-c1cc(C(C)(C)C)ccc1CN(C)C | 86.9 µM (inactive) |
| CC1=C(C(=O)NCc2ccccc2)C(c2ccco2)C(C(=O)NCc2ccccc2)=C(C)N1 | 17.8 µM (inactive) |
| OC[P+](CO)(CO)C12CC3CC(CC(C3)C1)C2 | 10.3 µM (inactive) |
| N#CC[C@@H](O)COc1ccccc1 | > 100 µM (inactive) |
| O=C(CCOS(=O)(=O)CF)N1CCN(C(=O)CCOS(=O)(=O)CF)CC1 | 5.06 µM (inactive) |
| Clc1cc2nsnc2c(Cl)n1 | 14.1 µM (inactive) |
| CSc1ccc2c(cc1=O)[C@@H](NC(=O)c1cccc([N+](=O)[O-])c1)CCc1cc(O)c(O)c(O)c1-2 | 26.1 µM (inactive) |
| C=C[C@@](C)(/C=C/c1ccc(O)cc1)CCC=C(C)C [BAKUCHIOL] | 14.1 µM (inactive) |
| NC(=O)NC(=O)C1CCCCC1C(=O)O (configuration not stated) | > 100 µM (inactive) |
| O=S(=O)(Oc1ccc2ccccc2c1-c1c(OS(=O)(=O)C(F)(F)F)ccc2ccccc12)C(F)(F)F | 11.3 µM (inactive) |
| C/C(Cl)=N\OC(=O)Nc1ccc(C)cc1 | 2.22 µM (inactive) |
| O=C(C1C(c2ccccc2)N1C(c1ccccc1)c1ccccc1)C1C(c2ccccc2)N1C(c1ccccc1)c1ccccc1 (configuration not stated) | 2.88 µM (inactive) |
| CN(C)c1cccc(/C=C(\C#N)c2ccccc2)c1 | 0.0865 µM (active) |
| COc1cccc2c1C(=O)c1c(O)c3c(c(O)c1C2=O)CC(O)(C(C)=O)CC3OC1CC([N+](C)(C)C)C(O)C(C)O1 (configuration not stated) | 24 µM (inactive) |
| COc1cc(C/C=C/c2ccccc2)c(OC)cc1O [VIOLASTYRENE] | 23.6 µM (inactive) |
| CC(=O)Oc1cc(/C=C/c2ccc(O)cc2)cc(OC(C)=O)c1 | 18.8 µM (inactive) |
| O=C1C(Cl)C(c2ccccc2Cl)N1n1cnc2ccccc2c1=O (configuration not stated) | 8.69 µM (inactive) |
| Cc1nc2ccc(F)cc2c2c1CCO2 | 24.5 µM (inactive) |
| CCCNC(=O)OCc1c(COC(=O)NCCC)c(-c2ccc(Cl)c(Cl)c2)n2c1CCC2 | 2.64 µM (inactive) |
| O=C1c2ccccc2C(O)(C(=O)O)C1(O)CC=C(Cl)Cl (configuration not stated) | > 125 µM (inactive) |
| CCOC(=O)C1(C#N)C(c2ccccc2)CC(O)(c2ccc(Cl)cc2)C(C(=O)c2ccc(Cl)cc2)C1c1ccccc1 (configuration not stated) | > 100 µM (inactive) |
| N#Cc1nc(COCCOCc2ccc(F)cc2)oc1N | > 100 µM (inactive) |
| Cc1ccc(-c2cc(-c3ccc(Cl)cc3)nc(/N=C3\C(=O)N(CN4CCOCC4)c4ccccc43)n2)cc1 | 9.02 µM (inactive) |
| CC(=O)N(C)c1ccc(Nc2ccnc3ccc4nn(C)nc4c23)cc1 | 18.4 µM (inactive) |
| O=C1CN=C(C[N+](=O)[O-])c2ccccc21 | > 100 µM (inactive) |
| CC(C)(C)c1ccc(C(C)(C)C)c(N2C(=O)C3ON=C(c4ccc([N+](=O)[O-])cc4)C3C2=O)c1 (configuration not stated) | > 25 µM (inactive) |
| COc1ccc(C(c2ccc(C(C)C)cc(=O)c2O)c2ccc3cccnc3c2O)cc1 (configuration not stated) | 0.863 µM (active) |
| COc1cc(OC)cc(Oc2nc3ccc(C(F)(F)F)cc3nc2-c2ccccc2)c1 | > 100 µM (inactive) |
| COC(=O)CCC(NC(=S)N/N=C(\C)c1nccs1)C(=O)OC (configuration not stated) | 10 µM (inactive) |
